Cited source: ChEMBL document CHEMBL5726462

procedure.details: Electrophysiology Assays: Patch clamp electrophysiology was used to assess the efficacy and selectivity of sodium channel blockers in dorsal root ganglion neurons. Rat neurons were isolated from the dorsal root ganglions and maintained in culture for 2 to 10 days in the presence of NGF (50 ng/ml) (culture media consisted of NeurobasalA supplemented with B27, glutamine and antibiotics). Small diameter neurons (nociceptors, 8-12 μm in diameter) were visually identified and probed with fine tip glass electrodes connected to an amplifier (Axon Instruments). The voltage clamp mode was used to assess the compound's IC50 holding the cells at −60 mV. In addition, the current clamp mode was employed to test the efficacy of the compounds in blocking action potential generation in response to current injections. The results of these experiments contributed to the definition of the efficacy profile of the compounds.
observed.property: IC50 (µM)
API: value field is a number in µM; no unit string.

**Query** Return reported IC50; argument: COc1ccc(Oc2nc3ccccc3cc2C(=O)Nc2ccc(C(=O)O)cc2)c(OC)c1
**Result** 0.55

**Query** Return reported IC50; argument: O=C(O)c1ccc(NC(=O)c2cc3ccccc3nc2Oc2ccc(F)cc2Cl)cn1
**Result** 0.096

**Query** Return reported IC50; argument: O=C(O)c1ccc(NC(=O)c2cc3ccccc3nc2Oc2ccccc2OC(F)F)cc1
**Result** 0.975

**Query** Return reported IC50; argument: O=C(O)c1ccc(NC(=O)c2cc3ccccc3nc2Oc2ccc(F)cc2F)cc1
**Result** 0.275

**Query** Return reported IC50; argument: Cc1cc(F)ccc1Oc1nc2ccccc2cc1C(=O)Nc1ccc(C(=O)O)cc1
**Result** 0.315

**Query** Return reported IC50; argument: COc1cc(F)ccc1Oc1nc2ccccc2nc1C(=O)Nc1nnn[nH]1
**Result** 2.2

**Query** Return reported IC50; argument: NS(=O)(=O)c1cccc(NC(=O)c2cc3ccccc3nc2Oc2ccccc2OC(F)F)c1
**Result** 0.024

**Query** Return reported IC50; argument: O=C(O)c1ccc(NC(=O)c2cc3ccccc3nc2Oc2ccc(F)cc2F)cn1
**Result** 0.255
